# assay-explanation: Pharmacokinetics after IV and PO dose in SD rats
# Assay type: in vivo
# condition-info: Sprague-Dawley, rat, plasma; IV 2.50 mg/kg, SD rats
reported-metric: half-life
Please give the number followed by its unit.

Task: Would you kindly share the measured half-life for O=C(O)c1ccc2c(c1)nc(Nc1cccc(Cl)c1)c1ccncc12 [Compound A1] ?
Output: 9.8 h

====

# assay-target: UniProtKB P36888
# Sequence (P36888 27-993): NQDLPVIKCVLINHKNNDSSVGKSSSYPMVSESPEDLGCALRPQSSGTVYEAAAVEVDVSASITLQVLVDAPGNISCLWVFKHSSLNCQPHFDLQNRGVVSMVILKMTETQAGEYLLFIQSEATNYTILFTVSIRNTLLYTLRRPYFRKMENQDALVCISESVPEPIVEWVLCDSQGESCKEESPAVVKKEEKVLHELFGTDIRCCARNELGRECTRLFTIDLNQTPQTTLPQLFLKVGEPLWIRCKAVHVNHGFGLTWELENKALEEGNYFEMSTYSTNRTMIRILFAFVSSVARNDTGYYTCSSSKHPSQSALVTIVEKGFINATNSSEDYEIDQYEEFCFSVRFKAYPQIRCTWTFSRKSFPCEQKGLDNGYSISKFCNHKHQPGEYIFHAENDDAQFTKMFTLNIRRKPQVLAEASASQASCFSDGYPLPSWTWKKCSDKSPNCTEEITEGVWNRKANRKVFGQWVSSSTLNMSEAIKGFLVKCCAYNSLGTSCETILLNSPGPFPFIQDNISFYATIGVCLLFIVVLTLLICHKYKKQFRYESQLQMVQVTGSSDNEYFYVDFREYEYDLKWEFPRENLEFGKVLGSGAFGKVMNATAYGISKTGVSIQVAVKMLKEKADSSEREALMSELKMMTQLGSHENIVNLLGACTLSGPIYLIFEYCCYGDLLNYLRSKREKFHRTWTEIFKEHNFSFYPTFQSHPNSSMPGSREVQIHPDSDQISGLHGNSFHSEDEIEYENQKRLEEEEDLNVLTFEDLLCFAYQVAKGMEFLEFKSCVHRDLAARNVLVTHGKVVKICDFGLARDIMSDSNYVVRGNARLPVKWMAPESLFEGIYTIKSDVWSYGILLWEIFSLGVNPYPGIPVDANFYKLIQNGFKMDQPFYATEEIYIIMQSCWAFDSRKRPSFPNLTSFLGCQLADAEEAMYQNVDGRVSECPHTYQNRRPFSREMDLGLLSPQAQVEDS
# assay-explanation: FLT-3 kinase activity in cell free in vitro assay
# Assay type: biochemical
# condition-info: cell-free; read-out: FLT-3
reported-metric: pIC50
Quick note: pIC50 values are minus log10 of concentrations in mol/L.

Recorded pIC50, per entry:
{"entry-smiles": "Clc1cccc(Nc2nc3cc(-c4nnn[nH]4)ccc3c3cnccc23)c1", "pIC50": 6.52}
{"entry-smiles": "O=C(O)c1ccc2c(c1)nc(Nc1ccc(F)c(Cl)c1)c1ccncc12", "pIC50": 7.39}
{"entry-smiles": "COc1cccc(Nc2nc3cc(C(=O)O)ccc3c3cnccc23)c1", "pIC50": 8.05}

Task: Would you kindly share the measured pIC50 for "N#Cc1cccc(Nc2nc3cc(C(=O)O)ccc3c3cnccc23)c1" ?
Output: 7.92
